Recorded PBM binding z-score by entry
System: LXRb:RXRa (NR concentration 270 nM, RXRa partner concentration 90 nM)
experiment: PBM binding z-score (relative to random genomic background probes); higher = stronger binding; sequences stand for … in GC…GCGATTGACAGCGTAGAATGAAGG
Number only, please.

primary-sequence	PBM binding z-score
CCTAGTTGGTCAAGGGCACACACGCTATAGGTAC	0.385
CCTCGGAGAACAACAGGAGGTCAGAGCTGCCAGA	1.46
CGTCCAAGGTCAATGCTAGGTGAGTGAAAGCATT	3.28
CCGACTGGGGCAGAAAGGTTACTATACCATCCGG	0.722

Exercise: Which PBM binding z-score value is on record for `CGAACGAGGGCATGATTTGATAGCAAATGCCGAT` ?
Key: -0.0288

Exercise: Would you mind telling me what PBM binding z-score value was observed for `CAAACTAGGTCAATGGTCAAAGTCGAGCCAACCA` ?
Key: 2.15

----------
System: LXRa homodimer (NR concentration 270 nM)
experiment: PBM binding z-score (relative to random genomic background probes); higher = stronger binding; sequences stand for … in GC…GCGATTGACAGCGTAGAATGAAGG
metric-name: PBM binding z-score
Respond with the number and no other words.

Worked set:
primary-sequence	test-system	reported-measurement
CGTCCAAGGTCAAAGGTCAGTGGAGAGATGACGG	LXRa homodimer (NR concentration 270 nM)	3.66
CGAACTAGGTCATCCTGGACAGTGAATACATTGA	LXRa homodimer (NR concentration 270 nM)	0.715
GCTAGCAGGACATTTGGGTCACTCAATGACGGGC	LXRa homodimer (NR concentration 270 nM)	-0.248
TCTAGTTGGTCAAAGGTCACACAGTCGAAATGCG	LXRa homodimer (NR concentration 270 nM)	4
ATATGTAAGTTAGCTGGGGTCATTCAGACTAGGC	LXRa homodimer (NR concentration 270 nM)	1.64

Exercise: I would be grateful if you could share the reported PBM binding z-score for `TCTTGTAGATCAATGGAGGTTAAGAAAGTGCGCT` .
Key: 0.173

----------
Tested on: RARa homodimer (NR concentration 270 nM)
experiment: PBM binding z-score (relative to random genomic background probes); higher = stronger binding; sequences stand for … in GC…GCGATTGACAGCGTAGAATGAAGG
Classification field: Satisfied = PBM binding z-score at or over 0.7; Not satisfied = PBM binding z-score under 0.7.

Example cases with answers are listed next.
primary-sequence	assigned-class
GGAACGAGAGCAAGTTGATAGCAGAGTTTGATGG	Not satisfied
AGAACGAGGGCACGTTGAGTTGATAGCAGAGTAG	Not satisfied
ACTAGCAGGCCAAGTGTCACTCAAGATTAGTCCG	Not satisfied
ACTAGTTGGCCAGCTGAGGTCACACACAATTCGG	Not satisfied
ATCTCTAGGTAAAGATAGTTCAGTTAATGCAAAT	Satisfied

For the next question, use this sequence.
Exercise: Test whether the sequence `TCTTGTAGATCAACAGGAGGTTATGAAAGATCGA` records PBM binding z-score of 0.7 or higher.
Key: Not satisfied

----------
System: LXRb:RXRa (NR concentration 270 nM, RXRa partner concentration 90 nM)
experiment: PBM binding z-score (relative to random genomic background probes); higher = stronger binding; sequences stand for … in GC…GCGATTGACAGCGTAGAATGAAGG
Answer n if PBM binding z-score is under 3, and y if it is 3 or more.

primary-sequence	test-system	assigned-class
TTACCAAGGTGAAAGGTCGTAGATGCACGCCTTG	LXRb:RXRa (NR concentration 270 nM, RXRa partner concentration 90 nM)	n

Exercise: # check: PBM binding z-score of `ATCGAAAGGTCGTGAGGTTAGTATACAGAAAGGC` is greater than or equal to 3
Key: y

Exercise: Has `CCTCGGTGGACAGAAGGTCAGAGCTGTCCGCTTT` a recorded PBM binding z-score greater than or equal to 3?
Key: n

Exercise: Hi, just wondering whether `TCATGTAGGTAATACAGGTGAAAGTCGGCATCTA` shows PBM binding z-score of 3 or higher.
Key: n

Exercise: Determine whether this sequence has PBM binding z-score no lower than 3: `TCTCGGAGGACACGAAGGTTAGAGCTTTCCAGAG`
Key: n

Exercise: Reported PBM binding z-score at or above 3? `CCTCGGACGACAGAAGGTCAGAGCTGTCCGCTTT`
Key: n
